# assayed_target: human Fc (human)
# assay_summary: ELISA, negative control
readout: optical density

371_E07 (antibody, V domains shown) VH: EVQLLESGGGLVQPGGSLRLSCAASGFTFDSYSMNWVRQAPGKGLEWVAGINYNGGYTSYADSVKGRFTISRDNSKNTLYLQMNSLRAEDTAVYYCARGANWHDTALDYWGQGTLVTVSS VL: DIQMTQSPSSLSASVGDRVTITCRASQSIISYLNWYQQKPGKAPKLLIYAATSLASGVPSRFSGSGSGTDFTLTISSLQPEDFATYYCQQSYESPLTFGGGTKVEIK	0.337 OD

The record that follows has no optical density shown yet.
// 374_B08 (antibody, V domains shown) VH: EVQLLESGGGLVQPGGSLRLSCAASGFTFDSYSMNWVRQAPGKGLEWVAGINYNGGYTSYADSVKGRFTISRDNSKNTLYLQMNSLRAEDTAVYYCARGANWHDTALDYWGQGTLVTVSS VL: DIQMTQSPSSLSASVGDRVTITCRASQSIVSYVNWYQQKPGKAPKLLIYAATSRHSGVPSRFSGSGSGTDFTLTISSLQPEDFATYYCQQSYELPLTFGGGTKVEIK : optical density value = 0.188 OD

Source of measurements: patent US20210380703A1
